# measurementProtocol: A CellTox Green Cytotoxicity Assay to monitor cytotoxicity in HEK293 cells - 40 hour (AID 1224871); note: nearly all actives have a fitted effect of over 45% in size; note: potency is the fitted concentration of half-maximal effect
# conditionDescription: CellTox Green fluorescence; series mostly up to 76.8 µM
Inconclusive results are not listed. Active and inactive are the calls of the source. Calls come from the whole dose curve; as a rule, active = well fitted activation curve with a large enough effect in the repeat runs; inconclusive = weak or mixed curves; inactive = flat fitted curve, though single readings scatter.
readoutType: Potency

{"compound": "CCOCn1c(-c2ccc(Cl)cc2)c(C#N)c(Br)c1C(F)(F)F", "Potency": "24.5 µM (active)"}
{"compound": "Nc1ccccc1C(=O)OC/C=C/c1ccccc1", "Potency": "inactive"}
{"compound": "BrC(Br)C(Br)(Br)Br", "Potency": "55.3 µM (active)"}
{"compound": "O=c1ssc(Cl)c1Cl", "Potency": "21.9 µM (active)"}
{"compound": "Cl/C=C\\CCl", "Potency": "inactive"}
{"compound": "CCCCCCCCc1ccc(O)cc1", "Potency": "19.6 µM (active)"}
{"compound": "CCCCCCCCCCCCCCC(Br)C(=O)O (centres undefined)", "Potency": "inactive"}
{"compound": "Cn1cc(C2=C(c3cn(C4CCN(Cc5ccccn5)CC4)c4ccccc34)C(=O)NC2=O)c2ccccc21", "Potency": "inactive"}
{"compound": "COP(=S)(OC)Oc1cc(Cl)c(Br)cc1Cl", "Potency": "inactive"}
{"compound": "O=C1c2ccccc2C(=O)C1C(=O)C(c1ccccc1)c1ccc(Cl)cc1 (centres undefined)", "Potency": "inactive"}

IN: Item under review: COP(N)(=S)OC . Reported Potency?
OUT: inactive

IN: Requested read-out: Potency. Entry: COC12CC[C@@]3(C[C@@H]1C(C)(O)C(C)(C)C)[C@H]1Cc4ccc(O)c5c4[C@@]3(CCN1CC1CC1)[C@H]2O5 (some centres undefined)
OUT: 24.4 µM (active)

IN: What does the record list as Potency for Nc1c(Oc2ccccc2)cc(O)c2c1C(=O)c1ccccc1C2=O ?
OUT: inactive

IN: Quick check: Potency of CC(Cc1ccc(C(C)(C)C)cc1)CN1C[C@@H](C)O[C@@H](C)C1 (some centres undefined) ?
OUT: 49 µM (active)

IN: # lookup: Potency of CC(C)CBr
OUT: inactive

IN: Entry COc1ccc(OC)c(C=O)c1 has what Potency?
OUT: inactive

IN: Potency for CC(=O)C(Cl)(Cl)Cl ?
OUT: inactive

IN: Recorded Potency for N#C/C=C/c1ccccc1 , please?
OUT: inactive

IN: Data request, read-out Potency, for CC1(C)C(/C=C(\Cl)C(F)(F)F)C1C(=O)OC(C#N)c1cccc(Oc2ccccc2)c1 (centres undefined)
OUT: inactive
